Reported Activity, No BP, DF-500000 values for the following binders.
- experimental.system: T1, IL-18 receptors on HEK-Blue IL-18 reporter cells (UniProt Q13478 19-541; O95256 20-599, limits assumed); note: unit not given here
- T1 sequence (looked up) 1: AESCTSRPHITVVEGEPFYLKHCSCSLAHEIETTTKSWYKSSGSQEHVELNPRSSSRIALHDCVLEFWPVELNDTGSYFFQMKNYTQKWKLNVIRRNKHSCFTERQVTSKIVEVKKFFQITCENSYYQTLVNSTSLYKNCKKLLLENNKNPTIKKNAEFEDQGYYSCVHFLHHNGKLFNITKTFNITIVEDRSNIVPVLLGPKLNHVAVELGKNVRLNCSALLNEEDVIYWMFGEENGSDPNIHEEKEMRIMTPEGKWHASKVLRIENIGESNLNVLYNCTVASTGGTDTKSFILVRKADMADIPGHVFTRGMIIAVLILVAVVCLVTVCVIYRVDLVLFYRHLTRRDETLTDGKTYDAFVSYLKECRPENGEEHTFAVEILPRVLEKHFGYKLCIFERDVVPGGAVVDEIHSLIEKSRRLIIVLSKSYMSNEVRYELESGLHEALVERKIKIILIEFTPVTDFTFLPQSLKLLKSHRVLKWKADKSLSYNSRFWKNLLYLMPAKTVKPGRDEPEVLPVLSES
- T1 sequence (looked up) 2: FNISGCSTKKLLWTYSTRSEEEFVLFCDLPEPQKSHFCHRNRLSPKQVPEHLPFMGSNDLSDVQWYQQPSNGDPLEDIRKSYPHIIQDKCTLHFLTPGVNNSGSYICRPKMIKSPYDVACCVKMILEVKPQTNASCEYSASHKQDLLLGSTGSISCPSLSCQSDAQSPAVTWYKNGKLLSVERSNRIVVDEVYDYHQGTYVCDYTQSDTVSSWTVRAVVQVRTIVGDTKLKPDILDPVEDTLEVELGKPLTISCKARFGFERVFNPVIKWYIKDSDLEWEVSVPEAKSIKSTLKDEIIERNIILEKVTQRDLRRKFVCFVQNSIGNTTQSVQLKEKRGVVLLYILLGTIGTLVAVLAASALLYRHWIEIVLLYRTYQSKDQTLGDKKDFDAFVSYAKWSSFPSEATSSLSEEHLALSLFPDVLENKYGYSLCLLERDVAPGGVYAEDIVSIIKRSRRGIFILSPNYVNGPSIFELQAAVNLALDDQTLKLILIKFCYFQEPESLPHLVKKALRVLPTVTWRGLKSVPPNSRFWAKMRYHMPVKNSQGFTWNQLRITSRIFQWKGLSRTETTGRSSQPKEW
- protocol.text: cell-based or functional assay

binder | Activity, No BP, DF-500000
IL-18 variant E6G, D54A, S55K, T63S, N91K, Q114R (ligand) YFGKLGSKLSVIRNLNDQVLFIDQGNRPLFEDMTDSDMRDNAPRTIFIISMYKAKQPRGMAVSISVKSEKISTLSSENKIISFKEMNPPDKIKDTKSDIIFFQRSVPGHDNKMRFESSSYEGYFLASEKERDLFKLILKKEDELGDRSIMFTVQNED | 2.05
IL-18 variant G3P, E6G, D54T, S55W, N91E, R104K (ligand) YFPKLGSKLSVIRNLNDQVLFIDQGNRPLFEDMTDSDMRDNAPRTIFIISMYKTWQPRGMAVTISVKSEKISTLSSENKIISFKEMNPPDEIKDTKSDIIFFQKSVPGHDNKMQFESSSYEGYFLASEKERDLFKLILKKEDELGDRSIMFTVQNED | 0.13
